Molecular target: Neuraminidase (Influenza B virus (strain B/Lee/1940), UniProt P03474)
Sequence (P03474 whole entry): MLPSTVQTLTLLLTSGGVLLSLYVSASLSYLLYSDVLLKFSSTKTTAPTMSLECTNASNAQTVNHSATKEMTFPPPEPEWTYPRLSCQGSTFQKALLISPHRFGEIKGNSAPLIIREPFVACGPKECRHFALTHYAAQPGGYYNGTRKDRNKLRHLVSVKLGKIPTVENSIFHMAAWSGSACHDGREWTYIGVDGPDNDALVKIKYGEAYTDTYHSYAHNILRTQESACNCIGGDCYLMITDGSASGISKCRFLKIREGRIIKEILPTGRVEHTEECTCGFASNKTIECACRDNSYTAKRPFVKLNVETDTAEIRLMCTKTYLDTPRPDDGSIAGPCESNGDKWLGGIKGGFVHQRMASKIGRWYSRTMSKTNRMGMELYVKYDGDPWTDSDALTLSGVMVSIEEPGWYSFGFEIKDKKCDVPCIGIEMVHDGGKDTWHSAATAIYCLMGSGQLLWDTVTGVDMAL
Assay: Inhibition of influenza B virus sialidase activity
pIC50: −log10 of the molar value.

# Compound, Target, Operator Symbol, pIC50
measured = [
    ("CCCCCCCCCN(CCC)C(=O)[C@@H]1OC(C(=O)O)=C[C@H](N=C(N)N)[C@H]1NC(C)=O", "Neuraminidase (Influenza B virus (strain B/Lee/1940), UniProt P03474)", "<", 5.52),
    ("CCCN(CC)C(=O)[C@@H]1OC(C(=O)O)=C[C@H](N)[C@H]1NC(C)=O", "Neuraminidase (Influenza B virus (strain B/Lee/1940), UniProt P03474)", "=", 6.39),
    ("CC(=O)N[C@@H]1[C@@H](N)C=C(C(=O)O)O[C@H]1C(=O)N(CCc1ccccc1)CC(N)=O", "Neuraminidase (Influenza B virus (strain B/Lee/1940), UniProt P03474)", "=", 4.51),
    ("CCCN(CCc1ccc(Cc2ccccc2)cc1)C(=O)[C@@H]1OC(C(=O)O)=C[C@H](N)[C@H]1NC(C)=O", "Neuraminidase (Influenza B virus (strain B/Lee/1940), UniProt P03474)", "=", 5.28),
    ("CC(=O)N[C@@H]1[C@@H](N)C=C(C(=O)O)O[C@H]1C(=O)N(CCc1ccccc1)C(C)C", "Neuraminidase (Influenza B virus (strain B/Lee/1940), UniProt P03474)", "=", 5.10),
    ("CCCN(CCc1ccccc1OC)C(=O)[C@@H]1OC(C(=O)O)=C[C@H](N)[C@H]1NC(C)=O", "Neuraminidase (Influenza B virus (strain B/Lee/1940), UniProt P03474)", "=", 4.92),
    ("CC(=O)N[C@@H]1[C@@H](N)C=C(C(=O)O)O[C@H]1C(=O)N1CCCC1C (stereo partly drawn)", "Neuraminidase (Influenza B virus (strain B/Lee/1940), UniProt P03474)", "=", 3.68),
    ("CCCN(CCc1cccc(-c2ccccc2)c1)C(=O)[C@@H]1OC(C(=O)O)=C[C@H](N)[C@H]1NC(C)=O", "Neuraminidase (Influenza B virus (strain B/Lee/1940), UniProt P03474)", "=", 5.35),
]
